Multiple publications report Ki for D(3) dopamine receptor (Homo sapiens, UniProt P35462); what follows is a combined list.
recorded.endpoint: Ki (nM)

Would you please look over these solved cases?
>>> value_reported("CCN(Cc1ccccc1)C(=O)NCCCCN1CCN(c2cc(C(F)(F)F)nc(C(C)(C)C)n2)CC1")
8.3
>>> value_reported("N#Cc1ccc2c(c1)[C@@H]1CN(Cc3ccccc3)C[C@H]1CO2")
6.31
>>> value_reported("O=C(c1ccccc1)N1CCN(CCN2CCc3ncsc3CC2)CC1")
12300
>>> value_reported("O=Cc1c(OCCCCN2CCN(c3cccc(Cl)c3Cl)CC2)nn2ccccc12")
5.9
>>> value_reported("Cc1nnc(-c2ccc(-c3ccc(C(=O)NCCCCN4CCc5ccc(OS(=O)(=O)C(F)(F)F)cc5C4)cc3)cc2)o1")
2

[1] C#Cc1cccc2c(CN3CCN(c4ccc(Cl)cc4)CC3)cnn12
[2] O=C(NCCCN1CCN(c2ccccc2)CC1)c1cccc2c1-c1ccccc1C2=O
Between these two entries, 1 and 2 , state which has the higher Ki. Could you answer with the label of the item you picked?
1
(1: 4600 nM, 2: 430 nM)

[I] COc1ccccc1N1CCN(CC(F)CCNC(=O)c2cc3ccccc3s2)CC1 (stereo not given)
[II] COc1ccccc1N1CCN(CCCCNC(=O)c2cc3cc(O)ccc3[nH]2)CC1
[III] COc1ccccc1N1CCN(CCCCNc2nccc3ccccc23)CC1
[IV] Cc1ccc2c(OCCN3CCC(Cc4ccc5c(c4F)NC(=O)CO5)CC3)cc(Cl)cc2n1
Sort (4 compounds) by Ki: min first. To answer, arrange all of the labels according to the requested order.
II, III, I, IV
(II: 0.18 nM, III: 1 nM, I: 3.8 nM, IV: 1000 nM)

[P] O=C(NCCCN1CCN(c2ccc(Br)cc2)CC1)NN(Cc1ccccc1)c1ccccc1
[Q] CCN(Cc1cccc(C)c1)Cc1ccc(-c2cc(S(=O)(=O)CC)ccc2OC)[nH]1
Consider entries P and Q . Which has the numerically lower Ki? Could you answer with the label of the item you picked?
Q

[1] COCCOCCOc1ccc(NC(=O)NCCCN2CCN(c3ccccc3OC)CC2)c(-c2ccccc2)c1
[2] COc1cc2c(cc1O)CN(CCCCNC(=O)c1ccc(-c3ccccc3)cc1)CC2
Between these two entries, 1 and 2 , state which has the higher Ki. Could you answer with the label of the item you picked?
1

###

Multiple publications report pKi for D(3) dopamine receptor (Homo sapiens, UniProt P35462); what follows is a combined list.
pKi: −log10 of the molar value.
recorded.endpoint: pKi

Would you please look over these solved cases?
>>> value_reported("c1ccc(Cc2ccccc2OCCN2CCCC2)cc1")
5.74
>>> value_reported("COc1ccc(Br)cc1-c1nc(CNCCC2CCN(Cc3ccccc3)C2)co1 (stereo not drawn)")
7.12
>>> value_reported("CCN(Cc1cccc(Cl)c1)Cc1ccc(-c2cc(S(=O)(=O)CC)ccc2OC)[nH]1")
8.60
>>> value_reported("COc1ccccc1N1CCN(CCCCNC(=O)/C=C/c2ccc(Br)cc2)CC1")
9.37

[a] COc1cc(CN2CCN(c3ccc4c(c3)OCCO4)CC2)ccc1F
[b] COc1ccc(C2NCCc3c2[nH]c2ccc(Cl)cc32)c(O)c1 (stereo not drawn)
[c] O=C(CCCCCCCCCCCCCCCCCCC(=O)OC1(c2ccc(Cl)cc2)CCN(CCCC(=O)c2ccc(F)cc2)CC1)OC1(c2ccc(Cl)cc2)CCN(CCCC(=O)c2ccc(F)cc2)CC1
Sort (3 compounds) by pKi: min first. To answer, arrange all of the labels according to the requested order.
a, b, c
